target: High affinity nerve growth factor receptor (Homo sapiens); assay: Inhibition of TRK-A (unknown origin) assessed as remaining activity at 1 uM using fluorescein-poly GAT as substrate in presence of ATP by TR-FRET assay relative to control
Readout kind: Activity (%)

Sample answers from the record:
> print(dat)
                                smiles.code  readout.kind  reading
1  O=C(NCc1cn(CC(=O)N2CCCCC2)c2ccc(F)cc12)Nc1ccc(C(F)(F)F)cc1      Activity       87
2  COc1ccc(NC(=O)NCc2cn(CC(=O)N3CCOCC3)c3ccc(OC)cc23)cc1      Activity     98.9
3  COc1ccc(NC(=O)NCc2cn(CC(=O)N3CCCCC3)c3ccc(F)cc23)cc1      Activity     92.7
4  COc1ccc2c(c1)c(CNC(=O)Nc1ccc(C)cc1)cn2CC(=O)N1CCN(C)CC1      Activity     98.7
5  CN1CCN(C(=O)Cn2cc(CNC(=O)Nc3ccc(F)cc3F)c3cc(F)ccc32)CC1      Activity     84.9
6  COc1ccc(NC(=O)NCc2cn(CC(=O)N3CCCCC3)c3ccc(OC)cc23)cc1      Activity     92.1
7  COc1ccc2c(c1)c(CNC(=O)Nc1ccc(C)cc1)cn2CC(=O)N1CCOCC1      Activity     81.3

[A] Cc1ccc(NC(=O)NCc2cn(CC(=O)N3CCOCC3)c3ccc(F)cc23)cc1
[B] COc1ccc2c(c1)c(CNC(=O)Nc1ccc(F)cc1F)cn2CC(=O)N1CCCC1
q: Out of A and B , name the one with the higher Activity. Output the label that corresponds to your choice.
a: A

* * *

biological target: BDNF/NT-3 growth factors receptor (Homo sapiens) (UniProt Q16620); test: Inhibition of TRK-B (unknown origin) assessed as remaining activity at 1 uM using fluorescein-poly GAT as substrate in presence of ATP by TR-FRET assay relative to control
Sequence (Q16620 32-822 limits assumed): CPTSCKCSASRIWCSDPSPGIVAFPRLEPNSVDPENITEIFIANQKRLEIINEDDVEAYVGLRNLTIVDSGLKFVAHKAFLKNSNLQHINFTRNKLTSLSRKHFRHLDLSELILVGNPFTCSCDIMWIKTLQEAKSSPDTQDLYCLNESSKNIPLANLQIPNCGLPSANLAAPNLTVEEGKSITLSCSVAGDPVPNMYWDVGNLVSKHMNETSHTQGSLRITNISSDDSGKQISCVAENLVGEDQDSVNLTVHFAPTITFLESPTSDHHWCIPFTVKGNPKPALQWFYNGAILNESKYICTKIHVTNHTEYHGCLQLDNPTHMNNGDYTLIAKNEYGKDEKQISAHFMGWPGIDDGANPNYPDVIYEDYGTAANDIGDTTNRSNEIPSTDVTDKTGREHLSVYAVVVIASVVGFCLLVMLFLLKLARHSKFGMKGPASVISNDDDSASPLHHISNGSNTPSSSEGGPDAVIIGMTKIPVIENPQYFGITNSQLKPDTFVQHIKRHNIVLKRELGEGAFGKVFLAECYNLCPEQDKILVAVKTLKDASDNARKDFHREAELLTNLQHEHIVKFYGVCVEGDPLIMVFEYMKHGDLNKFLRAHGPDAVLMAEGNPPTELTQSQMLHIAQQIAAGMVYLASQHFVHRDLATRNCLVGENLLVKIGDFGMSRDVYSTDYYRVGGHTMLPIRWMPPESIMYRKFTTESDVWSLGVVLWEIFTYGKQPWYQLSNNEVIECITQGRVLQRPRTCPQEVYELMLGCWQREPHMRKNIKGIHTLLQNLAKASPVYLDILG
Readout kind: Activity (%)

> print(dat)
                                smiles.code                              study.target  reading
1  Cc1ccc(NC(=O)NCc2cn(CC(=O)N3CCCC3)c3ccc(F)cc23)cc1  BDNF/NT-3 growth factors receptor (Homo sapiens) (UniProt Q16620)     99.5
2  Cc1ccc(NC(=O)NCc2cn(CC(=O)N3CCN(C)CC3)c3ccc(F)cc23)cc1  BDNF/NT-3 growth factors receptor (Homo sapiens) (UniProt Q16620)     90.4
3  O=C(NCc1cn(CC(=O)N2CCCCC2)c2ccc(F)cc12)Nc1ccccc1Cl  BDNF/NT-3 growth factors receptor (Homo sapiens) (UniProt Q16620)     75.7
4  COc1ccc(NC(=O)NCc2cn(CC(=O)N3CCOCC3)c3ccc(OC)cc23)cc1  BDNF/NT-3 growth factors receptor (Homo sapiens) (UniProt Q16620)     92.5
5  COc1ccc(NC(=O)NCc2cn(CC(=O)N3CCN(C)CC3)c3ccc(F)cc23)cc1  BDNF/NT-3 growth factors receptor (Homo sapiens) (UniProt Q16620)      104
6  COc1ccc2c(c1)c(CNC(=O)Nc1ccc(F)cc1F)cn2CC(=O)N1CCOCC1  BDNF/NT-3 growth factors receptor (Homo sapiens) (UniProt Q16620)     73.1
7  O=C(NCc1cn(CC(=O)N2CCCCC2)c2ccc(F)cc12)Nc1ccc(C(F)(F)F)cc1  BDNF/NT-3 growth factors receptor (Homo sapiens) (UniProt Q16620)      108
8  COc1ccc2c(c1)c(CNC(=O)Nc1ccc(C)cc1)cn2CC(=O)N1CCOCC1  BDNF/NT-3 growth factors receptor (Homo sapiens) (UniProt Q16620)       84
9  COc1ccc2c(c1)c(CNC(=O)Nc1ccccc1Cl)cn2CC(=O)N1CCCC1  BDNF/NT-3 growth factors receptor (Homo sapiens) (UniProt Q16620)     99.3

* * *

biological target: Discoidin domain-containing receptor 2 (Homo sapiens); experiment: Inhibition of DDR2 (unknown origin) assessed as remaining activity at 1 uM using fluorescein-poly GAT as substrate in presence of ATP by TR-FRET assay relative to control
Readout kind: Activity (%)

> print(dat)
                                smiles.code  reading
1  Cc1ccc(NC(=O)NCc2cn(CC(=O)N3CCCCC3)c3ccc(F)cc23)cc1     92.5
2  COc1ccc(NC(=O)NCc2cn(CC(=O)N3CCN(C)CC3)c3ccc(OC)cc23)cc1     93.4
3  COc1ccc2c(c1)c(CNC(=O)Nc1ccccc1Cl)cn2CC(=O)N1CCOCC1     54.7
4  O=C(NCc1cn(CC(=O)N2CCCCC2)c2ccc(F)cc12)Nc1ccc(C(F)(F)F)cc1     70.1

* * *

molecular target: NT-3 growth factor receptor (Homo sapiens); assay: Inhibition of TRK-C (unknown origin) assessed as remaining activity at 1 uM using fluorescein-poly GAT as substrate in presence of ATP by TR-FRET assay relative to control
Readout kind: Activity (%)

> print(dat)
                                smiles.code  unit.of.measurement  reading
1  CN1CCN(C(=O)Cn2cc(CNC(=O)Nc3ccccc3Cl)c3cc(F)ccc32)CC1                    %     90.2
2  COc1ccc2c(c1)c(CNC(=O)Nc1ccc(C)cc1)cn2CC(=O)N1CCCCC1                    %     92.5
3  COc1ccc(NC(=O)NCc2cn(CC(=O)N3CCCCC3)c3ccc(OC)cc23)cc1                    %     92.7
4  COc1ccc2c(c1)c(CNC(=O)Nc1ccc(C)cc1)cn2CC(=O)N1CCCC1                    %     77.5
5  COc1ccc2c(c1)c(CNC(=O)Nc1ccc(F)cc1F)cn2CC(=O)N1CCCC1                    %     76.2

* * *

molecular target: High affinity nerve growth factor receptor (Homo sapiens) (UniProt P04629); test: Inhibition of TRK-A (unknown origin) assessed as remaining activity at 1 uM using fluorescein-poly GAT as substrate in presence of ATP by TR-FRET assay relative to control
Sequence (P04629 33-796 limits assumed): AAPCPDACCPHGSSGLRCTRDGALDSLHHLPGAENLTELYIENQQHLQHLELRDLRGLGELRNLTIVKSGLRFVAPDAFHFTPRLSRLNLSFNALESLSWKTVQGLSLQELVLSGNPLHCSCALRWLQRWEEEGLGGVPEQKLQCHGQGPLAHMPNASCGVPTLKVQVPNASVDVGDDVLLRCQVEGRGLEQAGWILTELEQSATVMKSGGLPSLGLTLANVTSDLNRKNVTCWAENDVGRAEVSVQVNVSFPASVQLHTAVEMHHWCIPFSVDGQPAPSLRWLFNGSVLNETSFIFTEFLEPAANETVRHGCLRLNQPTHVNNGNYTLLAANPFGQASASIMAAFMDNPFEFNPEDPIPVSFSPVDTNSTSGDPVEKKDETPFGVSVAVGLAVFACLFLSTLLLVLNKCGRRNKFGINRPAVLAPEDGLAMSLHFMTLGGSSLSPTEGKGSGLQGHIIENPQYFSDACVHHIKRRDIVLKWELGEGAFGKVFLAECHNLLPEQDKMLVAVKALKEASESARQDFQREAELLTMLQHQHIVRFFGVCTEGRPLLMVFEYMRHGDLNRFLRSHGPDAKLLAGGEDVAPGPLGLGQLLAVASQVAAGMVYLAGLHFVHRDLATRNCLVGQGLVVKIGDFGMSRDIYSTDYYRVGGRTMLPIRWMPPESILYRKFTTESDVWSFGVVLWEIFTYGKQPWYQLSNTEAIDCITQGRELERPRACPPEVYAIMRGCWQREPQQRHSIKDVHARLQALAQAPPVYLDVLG
Readout kind: Activity (%)

> print(dat)
                                 smiles.code                              study.target  unit.of.measurement  reading
 1  COc1ccc(NC(=O)NCc2cn(CC(=O)N3CCN(C)CC3)c3ccc(OC)cc23)cc1  High affinity nerve growth factor receptor (Homo sapiens) (UniProt P04629)                    %      108
 2  CN1CCN(C(=O)Cn2cc(CNC(=O)Nc3ccccc3Cl)c3cc(F)ccc32)CC1  High affinity nerve growth factor receptor (Homo sapiens) (UniProt P04629)                    %     81.8
 3  O=C(NCc1cn(CC(=O)N2CCOCC2)c2ccc(F)cc12)Nc1ccc(C(F)(F)F)cc1  High affinity nerve growth factor receptor (Homo sapiens) (UniProt P04629)                    %     77.5
 4  Cc1ccc(NC(=O)NCc2cn(CC(=O)N3CCCC3)c3ccc(F)cc23)cc1  High affinity nerve growth factor receptor (Homo sapiens) (UniProt P04629)                    %      101
 5  O=C(NCc1cn(CC(=O)N2CCCC2)c2ccc(F)cc12)Nc1ccc(F)cc1F  High affinity nerve growth factor receptor (Homo sapiens) (UniProt P04629)                    %     95.7
 6  Cc1ccc(NC(=O)NCc2cn(CC(=O)N3CCN(C)CC3)c3ccc(F)cc23)cc1  High affinity nerve growth factor receptor (Homo sapiens) (UniProt P04629)                    %     91.7
 7  COc1ccc(NC(=O)NCc2cn(CC(=O)N3CCCC3)c3ccc(OC)cc23)cc1  High affinity nerve growth factor receptor (Homo sapiens) (UniProt P04629)                    %      113
 8  O=C(NCc1cn(CC(=O)N2CCCCC2)c2ccc(F)cc12)Nc1ccc(F)cc1F  High affinity nerve growth factor receptor (Homo sapiens) (UniProt P04629)                    %     88.2
 9  COc1ccc2c(c1)c(CNC(=O)Nc1ccc(F)cc1F)cn2CC(=O)N1CCCCC1  High affinity nerve growth factor receptor (Homo sapiens) (UniProt P04629)                    %     84.7
10  O=C(NCc1cn(CC(=O)N2CCOCC2)c2ccc(F)cc12)Nc1ccc(F)cc1F  High affinity nerve growth factor receptor (Homo sapiens) (UniProt P04629)                    %     93.8
11  COc1ccc2c(c1)c(CNC(=O)Nc1ccc(C)cc1)cn2CC(=O)N1CCCCC1  High affinity nerve growth factor receptor (Homo sapiens) (UniProt P04629)                    %     82.3
12  O=C(NCc1cn(CC(=O)N2CCCCC2)c2ccc(F)cc12)Nc1ccccc1Cl  High affinity nerve growth factor receptor (Homo sapiens) (UniProt P04629)                    %     90.3
13  Cc1ccc(NC(=O)NCc2cn(CC(=O)N3CCCCC3)c3ccc(F)cc23)cc1  High affinity nerve growth factor receptor (Homo sapiens) (UniProt P04629)                    %     99.7
14  O=C(NCc1cn(CC(=O)N2CCCC2)c2ccc(F)cc12)Nc1ccc(C(F)(F)F)cc1  High affinity nerve growth factor receptor (Homo sapiens) (UniProt P04629)                    %      101
15  O=C(NCc1cn(CC(=O)N2CCOCC2)c2ccc(F)cc12)Nc1ccccc1Cl  High affinity nerve growth factor receptor (Homo sapiens) (UniProt P04629)                    %       78
16  COc1ccc2c(c1)c(CNC(=O)Nc1ccccc1Cl)cn2CC(=O)N1CCCC1  High affinity nerve growth factor receptor (Homo sapiens) (UniProt P04629)                    %     95.7
17  COc1ccc(NC(=O)NCc2cn(CC(=O)N3CCOCC3)c3ccc(F)cc23)cc1  High affinity nerve growth factor receptor (Homo sapiens) (UniProt P04629)                    %     90.8
